TGT: UniProt Q96GD4
Sequence (Q96GD4 whole entry): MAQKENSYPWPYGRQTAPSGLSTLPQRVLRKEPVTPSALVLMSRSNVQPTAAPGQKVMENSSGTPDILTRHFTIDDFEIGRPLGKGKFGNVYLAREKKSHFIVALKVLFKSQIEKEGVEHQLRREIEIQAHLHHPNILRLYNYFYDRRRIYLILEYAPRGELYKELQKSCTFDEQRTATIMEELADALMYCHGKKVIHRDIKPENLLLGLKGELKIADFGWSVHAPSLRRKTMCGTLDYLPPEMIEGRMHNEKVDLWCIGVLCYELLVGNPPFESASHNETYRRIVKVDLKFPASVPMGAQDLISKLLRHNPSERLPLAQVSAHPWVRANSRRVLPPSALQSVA
PROTOCOL SUMMARY: KiNativ assay
Assay type: binding
SETTINGS: H929 live cell, read-out: inhibition (10 μM)
Protocol: Biochemical IC50s of the compounds of the present disclosure against various kinases were measured in a KiNativ assay. Compounds were screened in duplicate at 10 μM in H929 live cell. IC50 was measured via Mass spectroscopy (MS).
Overview of recorded inhibition at 10 µM for various molecules
Express it in %; write the number only.

Nc1ncc(-c2cccc([N+](=O)[O-])c2F)cc1-c1ccc2c(c1)CCNC2=O: 53.4
Nc1ncc(-c2ccc(NS(=O)(=O)C3CC3)cc2OC2CCCCC2)cc1-c1ccc2c(c1)CCNC2=O: 21
COc1cc(NS(=O)(=O)C2CC2)ccc1-c1cnc(N)c(-c2ccc3c(c2)CCNC3=O)c1: 7.7
Nc1ncc(-c2ccc(NS(=O)(=O)C3CC3)cc2F)cc1-c1ccc2c(c1)CCNC2=O: 31.8
Nc1ncc(-c2cccc3ncsc23)cc1-c1ccc2c(c1)CCNC2=O: 20.7

Turning to the following molecule.
// lookup inhibition at 10 µM for CN(C1CC1)S(=O)(=O)c1ccc(-c2cnc(N)c(-c3ccc4c(c3)CCNC4=O)c2)c(F)c1
32.7

---

TGT: LYN (Homo sapiens (Human))
Sequence (P07948 whole entry): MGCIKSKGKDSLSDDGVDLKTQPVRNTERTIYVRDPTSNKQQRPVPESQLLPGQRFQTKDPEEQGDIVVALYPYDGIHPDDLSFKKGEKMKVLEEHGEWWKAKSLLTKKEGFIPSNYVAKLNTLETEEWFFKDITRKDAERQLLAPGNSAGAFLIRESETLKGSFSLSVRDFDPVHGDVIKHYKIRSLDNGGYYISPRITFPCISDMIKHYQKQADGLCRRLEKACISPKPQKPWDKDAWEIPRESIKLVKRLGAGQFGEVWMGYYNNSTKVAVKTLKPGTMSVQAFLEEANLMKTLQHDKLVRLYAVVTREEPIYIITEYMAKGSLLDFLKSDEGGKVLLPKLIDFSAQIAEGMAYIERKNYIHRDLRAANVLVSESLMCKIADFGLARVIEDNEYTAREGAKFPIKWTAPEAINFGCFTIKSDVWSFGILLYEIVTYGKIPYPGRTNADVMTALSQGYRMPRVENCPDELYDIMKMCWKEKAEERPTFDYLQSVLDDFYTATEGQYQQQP
PROTOCOL SUMMARY: KiNativ assay
Type: binding
SETTINGS: H929 live cell, read-out: inhibition (10 μM)
Outcome: 1 for inhibition at 10 µM of at least -10%; -1 for anything lower.

Nc1ncc(-c2ccc(NS(=O)(=O)C3CC3)cc2OC2CCCCC2)cc1-c1ccc2c(c1)CCNC2=O: 1
Nc1ncc(-c2ccc(NS(=O)(=O)C3CC3)cc2F)cc1-c1ccc2c(c1)CCNC2=O: -1
CN(C1CC1)S(=O)(=O)c1ccc(-c2cnc(N)c(-c3ccc4c(c3)CCNC4=O)c2)c(F)c1: -1
Nc1ncc(-c2cccc3ncsc23)cc1-c1ccc2c(c1)CCNC2=O: -1
COc1cc(NS(=O)(=O)C2CC2)ccc1-c1cnc(N)c(-c2ccc3c(c2)CCNC3=O)c1: 1

Continue with the compound presented below.
Check if inhibition at 10 µM >= -10% (inclusive). Item: Nc1ncc(-c2cccc([N+](=O)[O-])c2F)cc1-c1ccc2c(c1)CCNC2=O
-1

---

TGT: NEK3 (Homo sapiens (Human), UniProt P51956)
Sequence (P51956 whole entry): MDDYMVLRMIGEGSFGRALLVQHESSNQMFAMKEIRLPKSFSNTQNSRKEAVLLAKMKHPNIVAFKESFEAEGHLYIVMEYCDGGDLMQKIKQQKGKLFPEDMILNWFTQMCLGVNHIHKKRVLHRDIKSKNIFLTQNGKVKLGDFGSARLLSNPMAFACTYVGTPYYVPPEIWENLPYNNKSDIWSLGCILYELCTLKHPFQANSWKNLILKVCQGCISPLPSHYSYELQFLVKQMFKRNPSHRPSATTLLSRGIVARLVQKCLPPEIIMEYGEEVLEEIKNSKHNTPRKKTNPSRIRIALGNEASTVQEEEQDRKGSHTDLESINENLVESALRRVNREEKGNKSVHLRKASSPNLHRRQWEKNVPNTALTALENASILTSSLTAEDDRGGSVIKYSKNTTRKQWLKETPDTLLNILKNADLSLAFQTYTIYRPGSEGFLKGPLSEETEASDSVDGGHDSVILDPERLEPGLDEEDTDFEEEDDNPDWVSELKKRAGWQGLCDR
PROTOCOL SUMMARY: KiNativ assay
Format: binding
SETTINGS: H929 live cell, read-out: inhibition (10 μM)
MEASURED METRIC: inhibition at 10 µM (%)
Please respond with the number in % and leave the unit unwritten.

Nc1ncc(-c2ccc(NS(=O)(=O)C3CC3)cc2OC2CCCCC2)cc1-c1ccc2c(c1)CCNC2=O [Compound I-65]: -18.4
Nc1ncc(-c2ccc(NS(=O)(=O)C3CC3)cc2F)cc1-c1ccc2c(c1)CCNC2=O [Compound I-51]: -13
Nc1ncc(-c2cccc3ncsc23)cc1-c1ccc2c(c1)CCNC2=O [Compound I-13]: 5.3
CN(C1CC1)S(=O)(=O)c1ccc(-c2cnc(N)c(-c3ccc4c(c3)CCNC4=O)c2)c(F)c1 [Compound I-28]: -27.2

Bench note: what inhibition at 10 µM did Nc1ncc(-c2cccc([N+](=O)[O-])c2F)cc1-c1ccc2c(c1)CCNC2=O [Compound I-9] show?
-42.8

Could you tell me which inhibition at 10 µM is on file for COc1cc(NS(=O)(=O)C2CC2)ccc1-c1cnc(N)c(-c2ccc3c(c2)CCNC3=O)c1 [Compound I-50] ?
-9.9
